experiment: Selectivity index, ratio of IC50 for mouse peritoneal macrophages to IC50 for Leishmania amazonensis Josefa amastigotes
observed property: Ratio IC50

{"compound": "CO[C@H]1C[C@H](O[C@H]2[C@H](C)O[C@@H](O[C@H](C(C)O)[C@@H](C)CO)C[C@@H]2OC)O[C@@H](C)[C@@H]1O (some centres not stated)", "observed property": "Ratio IC50", "data value": "<1"}
{"compound": "CC[C@H](C)[C@H]1O[C@]2(CC[C@@H]1C)C[C@@H]1C[C@@H](C/C=C(\\C)[C@@H](O[C@H]3C[C@H](OC)[C@@H](O)[C@H](C)O3)[C@@H](C)/C=C/C=C3\\CO[C@@H]4[C@H](O)C(C)=C[C@@H](C(=O)O1)[C@]34O)O2", "observed property": "Ratio IC50", "data value": ">3"}
{"compound": "CC[C@H](C)[C@H]1O[C@]2(CC[C@@H]1C)C[C@@H]1C[C@@H](C/C=C(\\C)[C@@H](O)[C@@H](C)/C=C/C=C3\\CO[C@@H]4[C@H](O)C(C)=C[C@@H](C(=O)O1)[C@]34O)O2", "observed property": "Ratio IC50", "data value": ">2.8"}
{"compound": "CCOC(=O)C1=C[C@H](C)[C@@H](O)[C@H]2OC/C(=C\\CO)[C@@]12O", "observed property": "Ratio IC50", "data value": ">6.5"}
{"compound": "CCOC(=O)[C@@H]1C=C(C)[C@@H](O)[C@H]2OC/C(=C\\CO)[C@]21O", "observed property": "Ratio IC50", "data value": ">2.3"}

Return reported Ratio IC50; argument: `CC[C@H](C)[C@H]1O[C@]2(CC[C@@H]1C)C[C@@H](O)C[C@@H](C/C=C(\C)[C@@H](O)[C@@H](C)CO)O2`
>3

Return reported Ratio IC50; argument: `CC[C@H](C)[C@H]1O[C@]2(CC[C@@H]1C)C[C@@H](O)C[C@@H](CCO)O2`
>1.7
